experiment: yeast display, Sf9 membrane polyspecificity reagent, FACS + sequencing; frameworks hold sequencing errors

| biopolymer sequence | polyreactivity (PSR sort gate) |
| --- | --- |
| QVHLVESGGGIVQAGGSLRLSCAASGSIFNYYAMGWYRQAPGKETELVAAITWSGGRTYYADSVKGRFTISRDNAKNTVDLQMNSEKPEDTAVYYFATATVRFRVILFSPRMDDWGQGSQVTVSS | low polyreactivity |
| QVQLVESGGGLVQAGGSLRLSCAASGRTFKYYTMGWYRQAPGKERELVAAISGGGGITNYADSVKGRFTISRDNAKNTVYLQMNSQKPEDTAVYYCYARYNSWRYLAQYNYWGQGTQVTVSS | high polyreactivity |
| QFQLVESGGGLVQAGGSLRLICAASGFIFWYNAMGWYRQSPGKEREFVAAISSGGSTTYADSVKGRFTISRDNALITVYLQMNSLKPEDTAVYYCAAGSYDYDYWGQGTQVTVSS | low polyreactivity |
| QVQLVESGGGLVQAGGSLRLSCAASGSIFRRNAMGWYRQAPGKDRELVAAITTRGSRTTYADSVKGRFTISRDNAKNTVYLQMNSMKPEDTAVYYCAARQHFSYSFHVAYDYWGQGTQVTVSS | high polyreactivity |
| QVQLVESGGGLVQAGGSLRLSCAASGSTFRFYAMGWYRQAPGKEREFVAAISTSGGSTYYADSVKGRFTISRDNAKNTVYLQMISLKPEETAVYYCATRRRIRSSFYYDNDYWGLGTQVTVSS | high polyreactivity |
| QVQLVESGGGLDQAGGSLRLISAASGYVMGWYRQAPEKEKELVATITRGTSTYYADSVKGRFTISRDNAKNTVYFQMNSLKPDDTAVYYCAARTTSGEWPPGNICTYLYDYWGQGTQVTVSS | low polyreactivity |
| QVQLVESGGGLVQAGGSLRLSCAASGSIFLVYAMGWYRQAPGKERELVAVIRWRDGSTYYADSVKGRFTISRDNAMNTVYLQMNSLKPEDTAVYYCAADGVIFEYDYWGQGTQVTVSS | low polyreactivity |
| QVLLVESGGGLVQAGGSLRLSCAASGGTFLFYGMGWYRQAPGKERELVAVITWSGGSTYYADSVKGRFTISRDNAKNTVNLQMNSLKPEDTAVYYCNAANTGSPDYQSIGYNFNYWGQGTQVTVSS | low polyreactivity |
| QVQLVESGGGLVQAGGSLRLSCAASGRIFTYYGMGWYRQAPGKERELVAAISWSGGSTYYADSVKGRFTISRDNAKNTVYLQMNSLKPEDTAVYYCNAASRYGGDYWGQGTQVTVSS | high polyreactivity |
| QVQLVESGGGLVQAGGSLRLSCAASGRTFYSYAMGWYRQAPGKEWVLVAAISKRGTSTYYADSVKGRFTISRDNAKNTVYLQMNTLKPEDTAVYYCAAAYRGREVEYTSWGQGTQVTVSS | high polyreactivity |
| QDQLVESGGGLVQAGGSLRLSCAASGRTLGKYAMGWSRQAPGQERELVAAITQRGGITYYADSVQGRFTISRDNAKNTVYLQMNSLKPEDTAVYYCAASLYSYRSPYTFYYWGQGTQVTVSS | high polyreactivity |

====

experiment: yeast display, Sf9 membrane polyspecificity reagent, FACS + sequencing; frameworks hold sequencing errors
readout name: polyreactivity (PSR sort gate)

| biopolymer sequence | assay result |
| --- | --- |
| QVQLVESGGGLVQAGGSLRLSCAASGRILYWYALGWYRQAPGKERELVAAISRSGGSTSYADSVKGRFTISRDNAKNTVYLQMNSLKPEDTAVYYCAVDRFWRPVRSGTTYDYWGQGTQVTVSS | low polyreactivity |
| QVQLVESGGGLVQAGGSLRLSCAASGITFKYYAMGWYRQAPGKERELVAAITSGTRTNYADSVKGRFTISRDNAKNTVYLQMNSLKPEDTAVYYCAKVGSWYTSHRFGYWGHGTQVTVSS | high polyreactivity |
| QVQLVESGGGLVQAGGSLRLSCAASGSTFDWYVMGWYRKAPGKERELVAAINQGSGSTYYADSVKGRFTISRDNAKNTVYLQMNSLKPEDTAVYYCAADRYGAGYLYWPYDYWGQGTQVTVSS | low polyreactivity |
| QVQLVESGGGLVQAGGSLRLSCAASGSTFARYAMGWYRQAPGKERELVASITTGGRTYYADSVKGRFTITRDNAKYTVYLQMNSLKPEDTPVYFCNVLRYRGYDYWGQGTQVTVSS | high polyreactivity |
| QVQLVESGGGLVQAGGSLRLSFSASGSTFTSNAMGWYRQAPGKERELVASISGSGGRTYYADSVKGRFTISRDNAKNTVYLQMNSLKPEDTAVYYCNAESRNLYSTQFDYWGQGTQVTVSS | low polyreactivity |
